Origin of values: patent US10479780B2

Biological target: human Yes1 enzyme (Homo sapiens, UniProt P07947)
Construct: made in house
Sequence (P07947 whole entry): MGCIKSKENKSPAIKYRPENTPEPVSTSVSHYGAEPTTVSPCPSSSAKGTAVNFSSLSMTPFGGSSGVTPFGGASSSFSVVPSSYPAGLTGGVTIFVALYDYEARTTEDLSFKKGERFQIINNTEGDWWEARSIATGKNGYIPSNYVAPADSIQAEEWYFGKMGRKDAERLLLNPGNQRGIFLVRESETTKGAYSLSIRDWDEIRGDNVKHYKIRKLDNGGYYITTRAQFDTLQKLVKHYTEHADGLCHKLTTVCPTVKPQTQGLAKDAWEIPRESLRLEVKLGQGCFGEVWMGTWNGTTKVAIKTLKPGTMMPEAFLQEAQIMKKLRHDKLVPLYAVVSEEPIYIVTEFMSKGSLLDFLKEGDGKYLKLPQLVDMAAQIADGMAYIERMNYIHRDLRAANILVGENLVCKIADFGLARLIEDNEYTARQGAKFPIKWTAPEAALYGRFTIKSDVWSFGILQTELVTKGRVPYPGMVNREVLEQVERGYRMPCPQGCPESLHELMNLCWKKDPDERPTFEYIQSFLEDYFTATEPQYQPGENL
Test: Yes1 enzyme inhibitory activity (time-resolved fluorometry, biotinylated peptide phosphorylation)
Format: biochemical
Conditions: biotinylated peptide phosphorylation, read-out: YES_IC50
pIC50: −log10 of the molar value.
Measured Metric: pIC50

These recorded examples may help you get a feel for the data.
Cc1cc(Oc2ccccc2F)ccc1-n1ncc(C(=O)c2cc3cc(OC(F)F)c(NS(=O)(=O)C4CC4)cc3[nH]2)c1N 8.44
Cc1cc(Oc2ccccc2F)ncc1-n1ncc(C(=O)c2cc3cc(F)c(NS(=O)(=O)c4cccc(C#N)c4)cc3[nH]2)c1N 8.06
Cc1cc(Oc2ccccc2F)ccc1-n1ncc(C(=O)c2cc3cc(OCC(F)F)c(NS(=O)(=O)CCC(F)F)cc3[nH]2)c1N 8.64
CC(=O)N1CCC(c2cc3[nH]c(C(=O)c4cnn(-c5c(C)cc(Oc6ccccc6F)cc5F)c4N)cc3cc2OC(F)F)CC1 8.54

a: Cc1cc(Oc2ccccc2F)ccc1-n1ncc(C(=O)c2cc3cc(OCCN4CCOCC4)c(NS(C)(=O)=O)cc3[nH]2)c1N
b: Cc1cc(Oc2ccccc2F)ncc1-n1ncc(C(=O)c2cc3cc(OC(F)F)c(N4CCC(N5CCOCC5)CC4)cc3[nH]2)c1N
Quick check, higher pIC50 between a and b ? Answer format: the label of the selected item.
a

a: CS(=O)(=O)Nc1cc2[nH]c(C(=O)c3cnn(-c4ccc(Oc5ccccn5)cc4Cl)c3N)cc2cc1F
b: Cc1cncc(S(=O)(=O)Nc2cc3[nH]c(C(=O)c4cnn(-c5cnc(Oc6ccccc6F)cc5C)c4N)cc3cc2C)c1
Lab note: check whether a or b has the lower measured pIC50. Answer format: the label of the selected item.
b

a: CC(C)N1CCC(c2cc3cc(C(=O)c4cnn(-c5ccc(Oc6cccc(F)c6F)cc5)c4N)[nH]c3cc2F)CC1
b: Cc1cc2cc(C(=O)c3cnn(-c4ccc(Oc5ccccc5F)cc4C)c3N)[nH]c2cc1NS(=O)(=O)CC(=O)NC(C)C
c: Cc1cc2cc(C(=O)c3cnn(-c4cnc(Oc5ccccc5F)cc4C)c3N)[nH]c2cc1NS(=O)(=O)c1cc(F)cc(F)c1
d: Cc1cc(-n2ncc(C(=O)c3cc4cc(C)c(N5C(=O)NC6(CCN(C(=O)OC(C)(C)C)CC6)C5=O)cc4[nH]3)c2N)ccc1Oc1ccccc1F
Ascending by pIC50, please. Your reply should list the labels following the order given in the request.
d, c, b, a

I: Cc1cc2cc(C(=O)c3cnn(-c4cnc(Oc5ccccc5F)cc4C)c3N)[nH]c2cc1NS(=O)(=O)c1cc(C(F)(F)F)ccn1
II: Cc1ccccc1Oc1cc(C)c(-n2ncc(C(=O)c3cc4cc(F)c(NS(=O)(=O)CCCF)cc4[nH]3)c2N)cn1
Lab note: check whether I or II has the lower measured pIC50. Answer format: the label of the selected item.
I
